# assay.target: α-amylase from porcine pancreas (Sus scrofa)
# Construct: A saline suspension of α-amylase from porcine pancreas; purchased Sigma Aldrich (Steinheim, Germany) Lot #SLBN9170V (catalogue number not given); host or cells: porcine pancreas (tissue-derived)
# test: α-amylase enzyme activity assay, GalG2CNP conversion, UV/Vis detection of CNP at 405 nm
# Type: biochemical
# setup.conditions: (ii) Kic and Kiu by independent fit; [S] 10^3 µM; read-out: IC50 (Cheng−Prussoff, Equation (9))
Entries and their measured IC50 follow.

>  <compound>
OC[C@H]1O[C@@H](Oc2cc3c(O)cc(O)cc3[o+]c2-c2ccc(O)c(O)c2)[C@H](O)[C@@H](O)[C@@H]1O [Cyd-glc, cyanidin-3-glucoside]

>  <IC50 / µM>
201

$$$$
>  <compound>
COc1cc(-c2[o+]c3cc(O)cc(O)c3cc2O[C@@H]2O[C@H](CO)[C@@H](O)[C@H](O)[C@H]2O)ccc1O [Peo-glc, peonidin-3-glucoside]

>  <IC50 / µM>
212

$$$$
>  <compound>
OC[C@H]1O[C@@H](Oc2cc3c(O)cc(O)cc3[o+]c2-c2ccc(O)cc2)[C@H](O)[C@@H](O)[C@@H]1O [Plg-glc, pelargonidin-3-glucoside]

>  <IC50 / µM>
127

$$$$
>  <compound>
OC[C@H]1O[C@@H](Oc2cc3c(O)cc(O)cc3[o+]c2-c2cc(O)c(O)c(O)c2)[C@H](O)[C@@H](O)[C@@H]1O [Dpd-glc, delphinidin-3-glucoside]

>  <IC50 / µM>
167

$$$$

----------
Entries and their measured pIC50 follow.
# assay.target: α-amylase from porcine pancreas (Sus scrofa, UniProt P00690)
# Construct: A saline suspension of α-amylase from porcine pancreas; purchased Sigma Aldrich (Steinheim, Germany) Lot #SLBN9170V (catalogue number not given); host or cells: porcine pancreas (tissue-derived)
# test: α-amylase enzyme activity assay, GalG2CNP conversion, UV/Vis detection of CNP at 405 nm
# Assay type: biochemical
# setup.conditions: (ii) Kic and Kiu by independent fit; [S] 10 µM; read-out: IC50 (Cheng−Prussoff, Equation (9))
pIC50: −log10 of the molar value.

>  <compound>
OC[C@H]1O[C@@H](Oc2cc3c(O)cc(O)cc3[o+]c2-c2ccc(O)c(O)c2)[C@H](O)[C@@H](O)[C@@H]1O [Cyd-glc, cyanidin-3-glucoside]

>  <pIC50>
3.86

$$$$
>  <compound>
COc1cc(-c2[o+]c3cc(O)cc(O)c3cc2O[C@@H]2O[C@H](CO)[C@@H](O)[C@H](O)[C@H]2O)ccc1O [Peo-glc, peonidin-3-glucoside]

>  <pIC50>
3.92

$$$$
>  <compound>
OC[C@H]1O[C@@H](Oc2cc3c(O)cc(O)cc3[o+]c2-c2ccc(O)cc2)[C@H](O)[C@@H](O)[C@@H]1O [Plg-glc, pelargonidin-3-glucoside]

>  <pIC50>
4.15

$$$$
>  <compound>
OC[C@H]1O[C@@H](Oc2cc3c(O)cc(O)cc3[o+]c2-c2cc(O)c(O)c(O)c2)[C@H](O)[C@@H](O)[C@@H]1O [Dpd-glc, delphinidin-3-glucoside]

>  <pIC50>
4.19

$$$$

----------
# assay.target: α-amylase from porcine pancreas (Sus scrofa)
# Construct: A saline suspension of α-amylase from porcine pancreas; purchased Sigma Aldrich (Steinheim, Germany) Lot #SLBN9170V (catalogue number not given); host or cells: porcine pancreas (tissue-derived)
# Sequence (P00690 16-511): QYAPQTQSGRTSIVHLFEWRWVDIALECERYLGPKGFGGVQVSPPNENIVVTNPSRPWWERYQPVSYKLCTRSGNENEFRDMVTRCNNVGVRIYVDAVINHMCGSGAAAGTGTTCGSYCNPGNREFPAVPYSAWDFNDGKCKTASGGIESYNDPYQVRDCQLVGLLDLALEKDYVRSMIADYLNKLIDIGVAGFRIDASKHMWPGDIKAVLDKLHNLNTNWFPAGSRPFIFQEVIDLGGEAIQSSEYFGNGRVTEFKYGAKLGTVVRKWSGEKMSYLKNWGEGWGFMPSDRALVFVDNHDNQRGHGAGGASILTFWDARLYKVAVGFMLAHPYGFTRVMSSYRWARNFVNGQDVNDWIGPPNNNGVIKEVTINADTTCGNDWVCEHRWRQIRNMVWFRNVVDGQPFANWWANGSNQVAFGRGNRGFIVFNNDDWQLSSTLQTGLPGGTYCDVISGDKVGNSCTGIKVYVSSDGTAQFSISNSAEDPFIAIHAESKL
# test: α-amylase enzyme activity assay, GalG2CNP conversion, UV/Vis detection of CNP at 405 nm
# Format: biochemical
# setup.conditions: from apparent values; inhibitor c 50 µM; read-out: Kic
Entries and their measured Ki follow.
property.name: Ki (µM)

>  <compound>
OC[C@H]1O[C@@H](Oc2cc3c(O)cc(O)cc3[o+]c2-c2ccc(O)c(O)c2)[C@H](O)[C@@H](O)[C@@H]1O [Cyd-glc, cyanidin-3-glucoside]

>  <measure.unit>
µM

>  <reported.value>
103

$$$$
>  <compound>
OC[C@H]1O[C@@H](Oc2cc3c(O)cc(O)cc3[o+]c2-c2ccc(O)cc2)[C@H](O)[C@@H](O)[C@@H]1O [Plg-glc, pelargonidin-3-glucoside]

>  <measure.unit>
µM

>  <reported.value>
55

$$$$
>  <compound>
COc1cc(-c2[o+]c3cc(O)cc(O)c3cc2O[C@@H]2O[C@H](CO)[C@@H](O)[C@H](O)[C@H]2O)ccc1O [Peo-glc, peonidin-3-glucoside]

>  <measure.unit>
µM

>  <reported.value>
112

$$$$
>  <compound>
OC[C@H]1O[C@@H](Oc2cc3c(O)cc(O)cc3[o+]c2-c2cc(O)c(O)c(O)c2)[C@H](O)[C@@H](O)[C@@H]1O [Dpd-glc, delphinidin-3-glucoside]

>  <measure.unit>
µM

>  <reported.value>
60

$$$$

----------
Entries and their measured vmaxapp follow.
# assay.target: α-amylase from porcine pancreas (Sus scrofa, UniProt P00690)
# Construct: A saline suspension of α-amylase from porcine pancreas; purchased Sigma Aldrich (Steinheim, Germany) Lot #SLBN9170V (catalogue number not given); host or cells: porcine pancreas (tissue-derived)
# Sequence (P00690 16-511): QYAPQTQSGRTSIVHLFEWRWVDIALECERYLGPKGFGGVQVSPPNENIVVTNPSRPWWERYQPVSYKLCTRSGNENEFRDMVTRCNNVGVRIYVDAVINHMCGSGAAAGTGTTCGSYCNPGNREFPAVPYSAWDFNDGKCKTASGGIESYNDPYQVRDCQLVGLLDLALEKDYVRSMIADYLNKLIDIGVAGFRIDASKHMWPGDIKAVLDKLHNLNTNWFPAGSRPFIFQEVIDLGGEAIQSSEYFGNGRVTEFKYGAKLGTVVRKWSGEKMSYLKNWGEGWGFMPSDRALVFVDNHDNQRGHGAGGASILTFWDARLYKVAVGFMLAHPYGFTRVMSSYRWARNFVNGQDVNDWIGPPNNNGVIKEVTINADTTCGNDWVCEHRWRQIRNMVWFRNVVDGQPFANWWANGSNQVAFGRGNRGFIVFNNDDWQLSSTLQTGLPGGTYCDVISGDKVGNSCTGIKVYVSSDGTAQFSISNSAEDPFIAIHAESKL
# test: α-amylase enzyme activity assay, GalG2CNP conversion, UV/Vis detection of CNP at 405 nm
# Type: biochemical
# setup.conditions: Michaelis Menten fit; inhibitor c 50 µM
# Experimental: The enzyme activity assay, […], was established by Homoki and co-workers and already used by the authors to evaluate the inhibitory strength of different phenolic structures. To enable the evaluation of the result obtained in the present study compared to the non-anthocyanin phenolics investigated previously, the assay conditions were identical. […] To quantify the reaction product, a linear calibration with eight different CNP concentrations in the range of 0−35 µM was performed for each plate. […]
property.name: vmaxapp

>  <compound>
OC[C@H]1O[C@@H](Oc2cc3c(O)cc(O)cc3[o+]c2-c2cc(O)c(O)c(O)c2)[C@H](O)[C@@H](O)[C@@H]1O [Dpd-glc, delphinidin-3-glucoside]

>  <reported.value>
0,69 ± 0,03 µM/min

$$$$
>  <compound>
COc1cc(-c2[o+]c3cc(O)cc(O)c3cc2O[C@@H]2O[C@H](CO)[C@@H](O)[C@H](O)[C@H]2O)ccc1O [Peo-glc, peonidin-3-glucoside]

>  <reported.value>
0,65 ± 0,05 µM/min

$$$$
>  <compound>
OC[C@H]1O[C@@H](Oc2cc3c(O)cc(O)cc3[o+]c2-c2ccc(O)c(O)c2)[C@H](O)[C@@H](O)[C@@H]1O [Cyd-glc, cyanidin-3-glucoside]

>  <reported.value>
0,69 ± 0,21 µM/min

$$$$
>  <compound>
OC[C@H]1O[C@@H](Oc2cc3c(O)cc(O)cc3[o+]c2-c2ccc(O)cc2)[C@H](O)[C@@H](O)[C@@H]1O [Plg-glc, pelargonidin-3-glucoside]

>  <reported.value>
0,53 ± 0,23 µM/min

$$$$
